# assayed_target: LpxC (Pseudomonas aeruginosa)
# Sequence (P47205 whole entry): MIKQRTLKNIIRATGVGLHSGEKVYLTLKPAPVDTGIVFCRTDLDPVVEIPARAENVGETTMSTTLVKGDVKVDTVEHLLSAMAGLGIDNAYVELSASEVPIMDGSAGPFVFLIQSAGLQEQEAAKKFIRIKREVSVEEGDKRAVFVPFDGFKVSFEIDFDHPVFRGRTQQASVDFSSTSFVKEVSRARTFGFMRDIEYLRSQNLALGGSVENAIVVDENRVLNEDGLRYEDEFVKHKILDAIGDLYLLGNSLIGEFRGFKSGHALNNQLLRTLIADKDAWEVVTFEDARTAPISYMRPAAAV
# assay_info: Inhibition of LpxC Enzyme
# run_parameters: LpxC enzyme is pseudomonas construct
pIC50: −log10 of the molar value. Structures can show the parent of a compound that is named as a salt.
Rule: pIC50 under 8 gives Condition not met, otherwise Condition met.

Solved cases below.
[[record]]
molecule = "NNC(=O)c1cc(-c2ccc(C#Cc3ccc(NS(=O)(=O)C(F)(F)F)cc3)cc2)nc2ccncc12 [Example 185]"
cat = "Condition met"

[[record]]
molecule = "O=C(NO)[C@@H](Cc1ccc2ccccc2c1)NS(=O)(=O)c1ccc2ccccc2c1 [BB-78485]"
cat = "Condition not met"


**Q:** // inclusive: pIC50 at least 8? input: CS(=O)(=O)Nc1cc2nc(-c3ccc(-c4ccc(-c5cc(CO)on5)cc4)cc3)cc(C(=O)NN)c2cn1 [Example 327, hydrochloride]
**A:** Condition met

**Q:** // inclusive: pIC50 at least 8? input: CCC(C)C(NC(=O)c1ccc(C#Cc2ccc(-c3cc(C(=O)NN)c4cnccc4n3)cc2)cc1)C(=O)O (racemic) [Example 172]
**A:** Condition not met

**Q:** // inclusive: pIC50 at least 8? input: NNC(=O)c1cc(-c2ccc(C#Cc3ccc(C(=O)N4CCCC[C@H]4C(=O)O)cc3Cl)cc2)nc2ccncc12 [Example 202, hydrochloride]
**A:** Condition met
